Molecular target: T1, human LRRC15 extracellular domain with C-terminal His tag (human, UniProt Q8TF66 22-538)
T1 construct: Recombinant, made in HEK293; the entry holds the extracellular domain and the His tag; SPR analyte; also called TPP-1545; hLRRC15 CT-His
T1 sequence: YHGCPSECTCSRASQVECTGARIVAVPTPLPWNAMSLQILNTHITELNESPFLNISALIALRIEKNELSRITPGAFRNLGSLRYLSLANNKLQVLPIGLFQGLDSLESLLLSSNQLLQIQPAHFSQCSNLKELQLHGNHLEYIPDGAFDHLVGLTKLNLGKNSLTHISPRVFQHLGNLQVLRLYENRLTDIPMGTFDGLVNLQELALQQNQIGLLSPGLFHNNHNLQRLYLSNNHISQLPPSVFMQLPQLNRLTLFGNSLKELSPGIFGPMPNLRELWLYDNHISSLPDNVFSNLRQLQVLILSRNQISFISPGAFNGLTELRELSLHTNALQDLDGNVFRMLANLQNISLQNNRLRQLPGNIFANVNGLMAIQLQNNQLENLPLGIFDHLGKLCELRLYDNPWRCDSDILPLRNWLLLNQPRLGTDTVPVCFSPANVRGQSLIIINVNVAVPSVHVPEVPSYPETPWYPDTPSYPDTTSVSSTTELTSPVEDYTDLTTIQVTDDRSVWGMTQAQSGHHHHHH
Experiment: SPR at 10-37°C (Example 3)
quantity-kind: Temperature dependent loss in binding affinity (fold)
Numbers only; they are read as fold.

What value of Temperature dependent loss in binding affinity has been recorded for this entry: TPP-12942 (antibody, human IgG1, kappa, V domains shown, Prior art humanized IgG1 kappa antibody, used as comparator; also called huM25; huM25-hIgG1Kappa) VH: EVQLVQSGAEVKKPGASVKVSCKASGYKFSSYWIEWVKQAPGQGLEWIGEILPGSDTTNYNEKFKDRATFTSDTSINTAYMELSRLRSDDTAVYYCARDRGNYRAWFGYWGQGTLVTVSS VL: DIQMTQSPSSLSASVGDRVTITCRASQDISNYLNWYQQKPGGAVKFLIYYTSRLHSGVPSRFSGSGSGTDYTLTISSLQPEDFATYFCQQGEALPWTFGGGTKVEIKR
13.8
